# Test system: HCC 2998
# TEST_DESCRIPTION: NCI tumour cell line growth inhibition, 48 h
Active and inactive are the calls of the source. Rule as the data show it: active = GI50 up to about 1.1 µM and inactive = higher.
RECORDED_ENDPOINT: GI50

> print(dat)
                                   molecule  recorded.endpoint                value
1  CO[C@@]12[C@H](COC(N)=O)C3=C(C(=O)C(C)=C(N)C3=O)N1C[C@H]1[C@@H]2N1C (some centres undefined)               GI50   1.95 µM (inactive)
2  O=C(CC(O)(C(F)(F)F)C(F)(F)F)c1cc(CC(=O)C(O)(C(F)(F)F)C(F)(F)F)cc(CC(=O)C(O)(C(F)(F)F)C(F)(F)F)c1               GI50   1.54 µM (inactive)
3  On1c(-c2ccccc2)c(-c2ccccc2N2CCCC2)c2ccccc21               GI50  > 100 µM (inactive)
4  COc1ccc(C2CC(c3sc(Nc4ccc(C)cc4)nc3C)=NN2)cc1 (centres undefined)               GI50   15.8 µM (inactive)

----------
# System: MOLT-4
# TEST_DESCRIPTION: NCI tumour cell line growth inhibition, 48 h
Calls of active or inactive are those of the source. Cut-off read from the data, not from the text of the source: active = GI50 up to about 1.1 µM and inactive = higher.
Classes used: active, inactive

> print(dat)
                                    compound  tested.system  label.class
 1  OC[C@H]1O[C@@H]2O[C@@](COCc3ccccc3)([C@H](OCc3ccccc3)[C@H]2O)[C@@H]1OCc1ccccc1         MOLT-4     inactive
 2  Cc1ccc(NC(=O)CC2C(=O)Nc3ccccc3S2(=O)=O)cc1C (configuration not stated)         MOLT-4     inactive
 3  O=C(N/N=C(COc1ccccc1Cl)\N=C\c1ccncc1)c1ccncc1         MOLT-4     inactive
 4  O=C1NC(=S)NC(=O)C1=C/C=C/c1ccc([N+](=O)[O-])cc1         MOLT-4     inactive
 5                    CCOC(=O)Cc1nc2ccccc2s1         MOLT-4     inactive
 6  O=C(Cn1c2ccc(Br)cc2c2nc3ccccc3nc21)Nc1ccccc1         MOLT-4     inactive
 7  CN1C(c2ccccc2)CC(O)CC1c1ccccc1 (configuration not stated)         MOLT-4     inactive
 8  Cc1ccc(S(=O)(=O)N/N=C2/CCC(C(C)(C)C)CC2Br)cc1 (configuration not stated)         MOLT-4     inactive
 9                       CSc1nc2c(N)ncnc2n1C         MOLT-4     inactive
10  CSC1=NC(C(N)=O)C(N)N1C (configuration not stated)         MOLT-4     inactive
11       C=CCN1C(=O)/C(=C/c2ccc(OC)cc2)NC1=S         MOLT-4     inactive
12  Cc1cn(C2OC(CO[Si](C)(C)C(C)(C)C)C(N(C)O[Si](C)(C)C(C)(C)C)C2[Se]c2ccccc2)c(=O)[nH]c1=O (configuration not stated)         MOLT-4     inactive
13  Cc1nnc(N/N=C(/C(=O)C(C#N)c2ccccc2)C(C#N)c2ccccc2)n1N (configuration not stated)         MOLT-4       active
14  O=C1NC(=O)C2C1C1C=C3c4ccccc4N(c4ccccc4)C32[C@H]2C(=O)NC(=O)[C@@H]12 (some centres not stated)         MOLT-4     inactive
15        CCCC(=O)n1[nH]c(=O)n(C(C)(C)C)c1=O         MOLT-4     inactive
16  CCc1c2c(cc3c1CC1(C3)Cc3cc4c(c(C(=O)OC)c3C1)CCCC4)CCCC2 (configuration not stated)         MOLT-4     inactive
17  CC(=O)OCC1OC(Sc2ccccn2)C=CC1OC(C)=O (configuration not stated)         MOLT-4     inactive
18  CC(OC(C)(C)C)[C@H](NC(=O)OC(C)(C)C)C(=O)O (some centres not stated)         MOLT-4     inactive
19  Nc1nc(I)nc2c1ncn2C1OC(COS(N)(=O)=O)C(O)C1O (configuration not stated)         MOLT-4       active
20  O=C(CN1CCCCC1)Nc1ccc2c(c1)C1Oc3ccccc3CC1CO2 (configuration not stated)         MOLT-4     inactive
21  CC(C)=CC(=O)Cc1nc2ccc([N+](=O)[O-])cc2[nH]c1=O         MOLT-4     inactive
22  COc1cccc(CC(C)N)c1 (configuration not stated)         MOLT-4     inactive

Reference source for all entries: ChEMBL document CHEMBL1201862
